test: qHTS of pediatric cancer cell lines to identify multiple opportunities for drug repurposing: Primary screen for DAOY cells (AID 1347090); conditions: DAOY medulloblastoma viability, CellTiter-Glo luminescence, 48 h; series mostly up to 46 µM; note: nearly all actives have a fitted effect of over 55% in size
Inconclusive results are not listed. Activity calls are given as the source filed them. Calls come from the whole dose curve; as a rule, active = well fitted cell-killing curve with a large enough effect; inconclusive = small, poorly fitted or top-dose-only effect; inactive = flat fitted curve, though single readings scatter.
The reply should be one of these categories: active, inactive

q: GET /call?item= Cc1ncc(-c2ccnc(Nc3ccc(S(C)(=O)=O)cc3)n2)n1C(C)C returns the recorded outcome of this test.
a: active

q: GET /call?item= CCN(CC)CCNC(=O)c1c(C)[nH]c(C=C2C(=O)Nc3ccc(F)cc32)c1C returns the recorded outcome of this test.
a: active

q: GET /call?item= C[C@H]1COc2c(N3CCN(C)CC3)c(F)cc3c(=O)c(C(=O)O)cn1c23 returns the recorded outcome of this test.
a: inactive

q: GET /call?item= O=C(NC1CC1)c1cccc(-c2ccc3c(NC(=O)C4CC4)n[nH]c3c2)c1 returns the recorded outcome of this test.
a: active

q: GET /call?item= C=C1C[C@@]2(O)O[C@@]3(C[C@H]2C(C)C)[C@H](C)CC[C@H]13 returns the recorded outcome of this test.
a: inactive

q: GET /call?item= CCOC(=O)N1CCN([N+]([O-])=NOc2ccc([N+](=O)[O-])cc2[N+](=O)[O-])CC1 returns the recorded outcome of this test.
a: active

q: GET /call?item= Cc1[nH]c(C=C2C(=O)Nc3ccccc32)c(C)c1CCC(=O)O returns the recorded outcome of this test.
a: active

q: GET /call?item= NC(=O)N1CCC(CC(=O)N2CCC([C@H]3c4ncc(Br)cc4CCc4cc(Cl)cc(Br)c43)CC2)CC1 returns the recorded outcome of this test.
a: active

q: GET /call?item= Cc1cn([C@@H]2O[C@H](CO)[C@@H](O)[C@H]2F)c(=O)[nH]c1=O returns the recorded outcome of this test.
a: inactive

q: GET /call?item= CC1(C)CC(O)CC(C)(C)N1[O] returns the recorded outcome of this test.
a: inactive
